The origin of these recorded values is patent US8030487B2.

Let's go through some IC50 measurements on human c-Src (Homo sapiens, UniProt P12931) together.
Sequence (P12931 whole entry): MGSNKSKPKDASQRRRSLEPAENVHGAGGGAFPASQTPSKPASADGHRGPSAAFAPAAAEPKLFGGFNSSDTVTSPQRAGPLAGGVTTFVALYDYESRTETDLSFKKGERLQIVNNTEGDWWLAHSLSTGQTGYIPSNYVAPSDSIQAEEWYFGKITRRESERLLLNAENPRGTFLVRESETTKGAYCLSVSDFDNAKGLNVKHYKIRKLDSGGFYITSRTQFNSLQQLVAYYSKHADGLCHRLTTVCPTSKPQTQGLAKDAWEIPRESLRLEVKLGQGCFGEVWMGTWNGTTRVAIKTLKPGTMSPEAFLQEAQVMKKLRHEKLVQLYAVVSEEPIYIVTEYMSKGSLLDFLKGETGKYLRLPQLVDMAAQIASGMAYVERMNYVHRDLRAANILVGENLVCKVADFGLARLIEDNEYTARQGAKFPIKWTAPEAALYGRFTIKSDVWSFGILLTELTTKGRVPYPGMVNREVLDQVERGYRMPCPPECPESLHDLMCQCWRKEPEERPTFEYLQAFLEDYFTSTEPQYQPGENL
reported_metric: IC50 (µM)

[[record]]
compound = "Cc1ccc(NC(=O)C(F)(F)F)cc1C(=O)Nc1cnc(Nc2cccc(OCCN3CCCC3)c2)nc1 [drawing 173]"
test_result = 0.0506


P: O=C(Nc1cccc(C(F)(F)F)c1)Nc1ccc(Cl)c(C(=O)Nc2cnc(Nc3ccc(OCCN4CCCC4)cc3)nc2)c1 [drawing 202]
Q: Cc1ccc(Nc2nccc3ccccc23)cc1C(=O)Nc1cnc(Nc2cccc(OCCN3CCCC3)c2)nc1 [drawing 186]
Ask | Which item exceeds the other in IC50, P or Q ? Reply briefly: the label of your chosen item.
Reply | Q
(Q: 0.0233 µM, P: 0.0022 µM)

----------
Let's go through some IC50 measurements on human c-Src (Homo sapiens, UniProt P12931) together.
reported_metric: IC50 (nM)

[[record]]
compound = "O=C(Nc1ccc(Cl)c(C(=O)Nc2cnc(Nc3ccc(S(=O)(=O)C4CCNCC4)cc3)nc2)c1)c1cccc(Cl)c1"
test_result = 2.5


1: O=C(Nc1ccc(Cl)c(C(=O)Nc2cnc(Nc3ccccc3)nc2)c1)c1cccc(C(F)(F)F)c1 [drawing 181]
2: O=C(Nc1ccc(Cl)c(CNc2cnc(Nc3cccnc3)nc2)c1)c1cccc(C(F)(F)F)c1
3: O=C(Nc1ccc(Cl)c(C(=O)Nc2cnc(Nc3ccc(S(=O)(=O)C4CCNCC4)cc3)nc2)c1)c1cccs1
Ask | Order the items by recorded IC50; the first position goes to the largest value. Use the labels to give the ranking in the order requested.
Reply | 3, 2, 1
(3: 38.2 nM, 2: 10.2 nM, 1: 4.5 nM)

----------
Molecular target: human c-Src (Homo sapiens)
reported_metric: IC50 (nM)

Worked set:
[[record]]
compound = "COc1ccc(Nc2ncc(NC(=O)c3cc(NC(=O)c4cccc(C(F)(F)F)c4)ccc3Cl)cn2)cc1"
reported_metric = "IC50"
measure_unit = "nM"
test_result = 12

[[record]]
compound = "Cc1ccc(NC(=O)c2cccc(C(F)(F)F)c2)cc1C(=O)Nc1cnc(Nc2cccc(OCCN3CCCC3)c2)nc1 [drawing 163]"
reported_metric = "IC50"
measure_unit = "nM"
test_result = 3.9

[[record]]
compound = "O=C(Nc1ccc(Cl)c(C(=O)Nc2cnc(Nc3ccc(CCCN4CCCC4)cc3)nc2)c1)c1cccc(C(F)(F)F)c1 [drawing 172]"
reported_metric = "IC50"
measure_unit = "nM"
test_result = 2.8

[[record]]
compound = "O=C(Nc1ccc(Cl)c(C(=O)Nc2cnc(Nc3cccc(S(=O)(=O)NCCN4CCCC4)c3)nc2)c1)c1cccc(C(F)(F)F)c1"
reported_metric = "IC50"
measure_unit = "nM"
test_result = 4

[[record]]
compound = "O=C(Nc1ccc(Cl)c(C(=O)Nc2cnc(Nc3cccnc3)nc2)c1)c1cccc(C(F)(F)F)c1 [drawing 211]"
reported_metric = "IC50"
measure_unit = "nM"
test_result = 4.7


P: O=C(Nc1cnc(Nc2cccc(OCCN3CCCC3)c2)nc1)c1cc(NC(=O)C(F)(F)F)ccc1Cl [drawing 168]
Q: O=C(Nc1ccc(Cl)c(C(=O)Nc2cnc(Nc3ccc(OCCN4CCCC4)cc3)nc2)c1)c1cccc(C(F)(F)F)c1 [drawing 171]
R: O=C(Nc1ccc(Cl)c(C(=O)Nc2cnc(Nc3ccc(S(=O)(=O)C4CCNCC4)cc3)nc2)c1)c1cccc(C(F)(F)F)c1 [drawing 169]
Ask | Order the items by recorded IC50; the first position goes to the largest value. Use the labels to give the ranking in the order requested.
Reply | P, R, Q

P: N#Cc1ccc(C(=O)Nc2ccc(Cl)c(C(=O)Nc3cnc(Nc4ccc(S(=O)(=O)C5CCNCC5)cc4)nc3)c2)cc1
Q: O=C(Nc1ccc(Cl)c(C(=O)Nc2cnc(Nc3cccc(OCCN4CCCC4)c3)nc2)c1)c1cccc(C(F)(F)F)c1 [drawing 162]
R: Cc1ccc(NC(=O)Nc2cccc(C(F)(F)F)c2)cc1C(=O)Nc1cnc(Nc2cccnc2)nc1
Ask | Order the items by recorded IC50; the first position goes to the largest value. Use the labels to give the ranking in the order requested.
Reply | P, R, Q
(P: 32 nM, R: 7.9 nM, Q: 2.1 nM)
